protocol: Stability of analytes in rat plasma (QC samples under four storage conditions)
Assay type: in vitro ADME
reported.conditions: spiked concentration 1000 ng/mL, n = 6
measured.attribute: Measured concentration, Three freeze-thaw cycles (ng/mL)

- compound: "O=c1cc(-c2ccc(O)cc2)oc2cc(O)cc(O)c12"
  unit.info: "ng/mL"
  readout.value: 1086.4
- compound: "O=c1cc(-c2ccc(O)cc2)oc2cc(O[C@@H]3O[C@H](CO)[C@@H](O)[C@H](O)[C@H]3O)cc(O)c12 [Apigenin 7-glucoside]"
  unit.info: "ng/mL"
  readout.value: 1112.8
- compound: "O=C(/C=C/c1ccc(O)c(O)c1)O[C@@H]1C[C@](O)(C(=O)O)C[C@@H](O)[C@H]1O"
  unit.info: "ng/mL"
  readout.value: 1123.5
- compound: "O=c1c(O[C@@H]2O[C@H](CO)[C@H](O)[C@H](O)[C@H]2O)c(-c2ccc(O)c(O)c2)oc2cc(O)cc(O)c12 [Hyperoside]"
  unit.info: "ng/mL"
  readout.value: 1110.2
- compound: "COc1ccc(-c2cc(=O)c3c(O)cc(O)cc3o2)cc1"
  unit.info: "ng/mL"
  readout.value: 1032.7
- compound: "O=C(/C=C/c1ccc(O)c(O)c1)O[C@@H]1[C@H](O)C[C@@](O)(C(=O)O)C[C@H]1OC(=O)/C=C/c1ccc(O)c(O)c1"
  unit.info: "ng/mL"
  readout.value: 1052.4
- compound: "O=C(/C=C/c1ccc(O)c(O)c1)O[C@H]1[C@H](O)C[C@](O)(C(=O)O)C[C@H]1O"
  unit.info: "ng/mL"
  readout.value: 1122.8

###

protocol: Pharmacokinetic study in rat plasma after oral administration of Flos Chrysanthemi extract (UPLC-MS/MS)
Assay type: in vivo, Sprague-Dawley rats
reported.conditions: male, Sprague-Dawley, rat; rats, oral Flos Chrysanthemi extract 10 g/kg, plasma, n = 6
measured.attribute: Cmax (ng/mL)

- compound: "O=C(/C=C/c1ccc(O)c(O)c1)O[C@H]1[C@H](O)C[C@](O)(C(=O)O)C[C@H]1O"
  measured.attribute: "Cmax"
  readout.value: 89.4
- compound: "O=C(O)[C@H]1O[C@@H](Oc2cc(O)c3c(=O)cc(-c4ccc(O)c(O)c4)oc3c2)[C@H](O)[C@@H](O)[C@@H]1O [Luteolin 7-O-glucuronide]"
  measured.attribute: "Cmax"
  readout.value: 749

A: O=C(/C=C/c1ccc(O)c(O)c1)O[C@@H]1C[C@](O)(C(=O)O)C[C@@H](O)[C@H]1O
B: O=c1cc(-c2ccc(O)c(O)c2)oc2cc(O[C@@H]3O[C@H](CO)[C@@H](O)[C@H](O)[C@H]3O)cc(O)c12 [Cynaroside]
Field: entry with larger Cmax (options A / B ). Identify your pick by its label. B

###

protocol: Pharmacokinetic study in rat plasma after oral administration of Flos Chrysanthemi extract (UPLC-MS/MS)
Assay type: in vivo, Sprague-Dawley rats
reported.conditions: male, Sprague-Dawley, rat; rats, oral Flos Chrysanthemi extract 10 g/kg, plasma, n = 6
measured.attribute: half-life (h)

- compound: "O=C(/C=C/c1ccc(O)c(O)c1)O[C@H]1[C@H](O)C[C@](O)(C(=O)O)C[C@H]1O"
  readout.value: 6.9

1: O=c1cc(-c2ccc(O)c(O)c2)oc2cc(O[C@@H]3O[C@H](CO)[C@@H](O)[C@H](O)[C@H]3O)cc(O)c12 [Cynaroside]
2: O=C(/C=C/c1ccc(O)c(O)c1)O[C@@H]1[C@H](O)C[C@@](O)(C(=O)O)C[C@H]1OC(=O)/C=C/c1ccc(O)c(O)c1
3: O=c1cc(-c2ccc(O)cc2)oc2cc(O)cc(O)c12
Hey, quick one: sort these by half-life, low to high? // list labels; follow requested order 2, 1, 3
(2: 0.24 h, 1: 5.01 h, 3: 11.1 h)

Origin of the recorded values: paper PMC7456477
